Ref: the supplement of paper PMC10567573

Measured protein stability index of individual entries
# Experiment description: protein stability index of a GFP-peptide fusion (GPS, HEK-293T) (PSI 1-6); higher = more stable;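 note: 24-mer peptide tiles fused after GFP, lentivirally expressed, FACS-sorted into six equal bins by GFP/DsRed ratio, decoded by Illumina sequencing, PSI is the read-weighted mean bin number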
# Test conditions: treatment: MLN4924 1 uM, 8 h; c terminus: a fixed tail appended
Please reply with the value in numeric form only.

Consider the following illustrative entries.
# Entry sequence, Observable, Reported value
rows = [
    ("RWWEDLERDFPCPVCRKTSRYRSL [TRIM39]", "protein stability index", 2.77),
    ("KSSLIWSYPAGSLTFPVRPFFYTG [TRIM43]", "protein stability index", 2.08),
]

The value of protein stability index measured for the sequence SSNFHINVEESVDGQVVSSHKREI [KRT15] turned out to be 4.68

The value of protein stability index measured for the sequence WKLQKKEHPPEVSRETQRTPMNHQ [FBXO34] turned out to be 4.49

The value of protein stability index measured for the sequence FQNAERAFKAAALIQRWYRRYVAR [PPEF2] turned out to be 5.54

The value of protein stability index measured for the sequence MATFPCQLCGKTFLTLEKFTIHNY [PLAGL1] turned out to be 2.4

The value of protein stability index measured for the sequence ESGDEVPVELYTAFQHTPTSITLT [KMT2E] turned out to be 3.65

The value of protein stability index measured for the sequence TWRHRETLIIAVLVSASIANLWLW [FATE1] turned out to be 2.77

The value of protein stability index measured for the sequence VKVHGLLKTFVKQTDHIKGIRQIT [GFOD1] turned out to be 2.34

The value of protein stability index measured for the sequence SRRFEAVGWWALLALVTLLSFATR [POMT2] turned out to be 2.09

The value of protein stability index measured for the sequence VLSDINLKKGESECQYYIDKLEYL [NET1] turned out to be 2.94

The value of protein stability index measured for the sequence PKGSLSMGPAPRARPWTRDSASLP [RASAL3] turned out to be 4.04

* * *

# Experiment description: protein stability index of a GFP-peptide fusion (GPS, HEK-293T) (PSI 1-6); higher = more stable
# Test conditions: treatment: DMSO; c terminus: a fixed tail appended
# label = bin(measured protein stability index), where bins are c1: < 3; c2: ≥ 3 and < 4; c3: ≥ 4

# Entry sequence, Assigned category
measured = [
    ("PCVIESLRTLDKKTFYKTADISQM [TAF7L]", "c1"),
    ("EELCAQSARCVVSFNILVEDRVKL [PCDHGA10]", "c1"),
    ("QHPDMSVTKVVVHKETEITPEDGE [EPB41L3]", "c3"),
]

Query: Each sequence maps to one class by protein stability index. Which class for IYRKREEKRNAGNAVRSAMKSEEQ [KMT5A] ?
Response: c3

Query: Each sequence maps to one class by protein stability index. Which class for CEEWSFFHAYYYCFITLTTIGFGD [KCNK9] ?
Response: c2

Query: Each sequence maps to one class by protein stability index. Which class for LSSSEGLEPGSADPLANGCQGVSE [PSD2] ?
Response: c3

* * *

# Experiment description: protein stability index of a GFP-peptide fusion (GPS, HEK-293T) (PSI 1-6); higher = more stable
# Test conditions: treatment: MLN4924 1 uM, 8 h; c terminus: a fixed tail appended
Decision: protein stability index compared against 4; not below it gives 1.0, below it gives 0.0.

Example results:
# Entry sequence, Assigned category
rows = [
    ("LDPRYKRLPFLSAFERQQVENRVV [ZBED1]", 0.0),
    ("VLQIDNARLAADDFRVKYETELAM [KRT18]", 0.0),
    ("RSVKVICLGSLASKLSRKYVKAKK [FAN1]", 0.0),
    ("RNMLGLLGNVAEVKELRPQLMTSQ [ZER1]", 0.0),
    ("KHSNSPPLVTPPQSPVSPQPPAIT [SMTNL2]", 1.0),
    ("SVTGHTNIVEYLIQEQPGQEQVAG [FEM1A]", 1.0),
    ("INPFTPDSLLLHSSGQCRRRKRTY [WEE1]", 0.0),
    ("MSHKQIYYSDKYDDEEFEYRHVML [CKS1B]", 0.0),
]

Query: Could you please find out whether KMEIYQKENKDVIQKNKLKLTREQ [MNAT1] has protein stability index that meets 4 or exceeds it?
Response: 1.0

Query: Could you please find out whether VTLRQVLAAKERHCGELKRRLGLS [TPD52L2] has protein stability index that meets 4 or exceeds it?
Response: 0.0

Query: Could you please find out whether NVHTGEFRNCGACVTLMQGHEGSV [WDR88] has protein stability index that meets 4 or exceeds it?
Response: 0.0

Query: Could you please find out whether ENHPQESKGQPRSQEESEEGEEDA [CHGB] has protein stability index that meets 4 or exceeds it?
Response: 1.0

Query: Could you please find out whether PSEDIWKKFELVPSPPTSPPWGLG [MYCL] has protein stability index that meets 4 or exceeds it?
Response: 0.0

Query: Could you please find out whether DEDDVDQELANIDPTWIESPKTNG [SRPK2] has protein stability index that meets 4 or exceeds it?
Response: 1.0

Query: Could you please find out whether QHQNKSPPKVKAEDGMQCLQLKET [DLC1] has protein stability index that meets 4 or exceeds it?
Response: 1.0

Query: Could you please find out whether LFRKDVDDATLSRLELERKIESLM [PRPH] has protein stability index that meets 4 or exceeds it?
Response: 0.0

Query: Could you please find out whether AELQAELLHSQARLAELEAQVRKL [FBF1] has protein stability index that meets 4 or exceeds it?
Response: 1.0

Query: Could you please find out whether AGQKRKHSEGRVEVYYDGQWGTVC [LOXL2] has protein stability index that meets 4 or exceeds it?
Response: 0.0

Query: Could you please find out whether TSTKTDSEEGSWAQTLAYGDMNHE [PPFIA4] has protein stability index that meets 4 or exceeds it?
Response: 1.0

Query: Could you please find out whether YKAKSRSPGSPVGEGTGSPPKWQI [ADD1] has protein stability index that meets 4 or exceeds it?
Response: 0.0

Query: Could you please find out whether HHLGSGSGAGGTGGPAGQAGRGGA [MYOZ1] has protein stability index that meets 4 or exceeds it?
Response: 1.0

Query: Could you please find out whether AYYRGAVGALLVYDIAKHLTYENV [RAB11A] has protein stability index that meets 4 or exceeds it?
Response: 0.0

Query: Could you please find out whether LKEPLHKALQMLLSQPVTYQAFRE [BCL2L13] has protein stability index that meets 4 or exceeds it?
Response: 0.0

* * *

# Experiment description: protein stability index of a GFP-peptide fusion (GPS, HEK-293T) (PSI 1-6); higher = more stable
# Test conditions: treatment: MLN4924 1 uM, 8 h; c terminus: a fixed tail appended
# label = bin(measured protein stability index), where bins are I (below 3), II (3 to below 5), III (5 or more)

# Entry sequence, Assigned category
rows = [
    ("ELREACDYLCISFEYSTIKCRDLS [BTBD10]", "II"),
    ("YFYHRETENEEQTQLTQNAVSCPY [KCNA4]", "II"),
    ("MAAADAEAVPARGEPQQDCCVKTE [EHMT1]", "III"),
    ("QLCDVSIRVQGREFRAHRAVLAAS [ZBTB22]", "I"),
    ("PVQELPPSLRAPPPGGWPLQPRVQ [ZMAT5]", "II"),
]

Query: Each sequence maps to one class by protein stability index. Which class for RGDPLGGCQVSPEGYAHLTHLLMG [HDAC6] ?
Response: I

Query: Each sequence maps to one class by protein stability index. Which class for GELSQARGQEPARADQLCQQELRE [PRPH] ?
Response: III

Query: Each sequence maps to one class by protein stability index. Which class for LEEVNDEGYTPLMEAAREGHEEMV [ANKRD17] ?
Response: III

Query: Each sequence maps to one class by protein stability index. Which class for RVFSQGSHAWEVALGGLQSWRVGV [TRIM35] ?
Response: I

Query: Each sequence maps to one class by protein stability index. Which class for TSPWSECTKTCGVGVRMRDVKCYQ [ADAMTSL2] ?
Response: I

Query: Each sequence maps to one class by protein stability index. Which class for ELAEHRCHPVERGIKSKEAEEYRL [PSD2] ?
Response: II

Query: Each sequence maps to one class by protein stability index. Which class for SLYGENSNSLSSAEPLKEDKPVTG [ATF6] ?
Response: II

Query: Each sequence maps to one class by protein stability index. Which class for LPAEARERSRGRSISRGRHARTHP [MATN2] ?
Response: III

Query: Each sequence maps to one class by protein stability index. Which class for EELCAQSARCVVSFNILVEDRVKL [PCDHGA10] ?
Response: I

Query: Each sequence maps to one class by protein stability index. Which class for DHPIVETLRQKAEADKNDKAVKDL [HSP90AB1] ?
Response: III

Query: Each sequence maps to one class by protein stability index. Which class for YRFFKYIENRDVAKSVLKERGLKK [BTBD10] ?
Response: I

Query: Each sequence maps to one class by protein stability index. Which class for RLNIKKDDEFFHFVLLCFAIGALL [TMEM40] ?
Response: I

Query: Each sequence maps to one class by protein stability index. Which class for NLWYSFQDEEDMFMVVDLLLGGDL [STK32A] ?
Response: I
